Measured IC50, listed per entry for reference.
target: Kras and SOS1 (biotin-tagged human Kras loaded with GDP, His-tagged human SOS1) (Homo sapiens, UniProt P01116, G12D); construct: made in house; host or cells: E. coli (stated for Kras only); test: Protein-protein interaction inhibition between Kras and SOS1 (KrasGl2D-SOS PPI) using AlphaScreen; assay type: binding; details: AlphaScreen; biotin-tagged human Kras loaded with GDP, His-tagged human SOS1; read-out: KRAS G12D-SOS PPI IC50
Sequence (P01116 1-188 isoform P01116-2 G12D): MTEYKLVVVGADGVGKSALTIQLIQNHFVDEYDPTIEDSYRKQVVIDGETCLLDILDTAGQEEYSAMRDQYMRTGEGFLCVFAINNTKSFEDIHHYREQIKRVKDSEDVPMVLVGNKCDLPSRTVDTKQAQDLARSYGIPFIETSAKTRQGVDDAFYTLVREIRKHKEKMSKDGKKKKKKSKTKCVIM
Positions of bridges follow the written chain, without caps; N, C: chain ends. Non-standard residues stand in square brackets, D forms with d. Residues, ends and D or L forms follow the SMILES beside them. *: point of attachment. hPhe(3-Cl-4-CF3) = N[C@@H](CCc1ccc(C(F)(F)F)c(Cl)c1)C(=O)O; Phe(4-CF3) = N[C@@H](Cc1ccc(C(F)(F)F)cc1)C(=O)O; Phe(3-I) = N[C@@H](Cc1cccc(I)c1)C(=O)O; NMeCha = CN[C@@H](CC1CCCCC1)C(=O)O; NMeD = CN[C@@H](CC(=O)O)C(=O)O; NMeL = CN[C@@H](CC(C)C)C(=O)O; NMeV = CN[C@H](C(=O)O)C(C)C; NMeS = CN[C@@H](CO)C(=O)O; NMeA = CN[C@@H](C)C(=O)O; NMeAib = CNC(C)(C)C(=O)O; Piperidide = C1CCN(*)CC1; Ac5c = NC1(C(=O)O)CCCC1; Aze = O=C(O)[C@@H]1CCN1; Cyclobutyl = C1CC(*)C1; Sar = CNCC(=O)O
Reported Property: IC50 (nM)

Molecule	Endpoint Result
CC[C@H](C)[C@@H]1NC(=O)[C@H](CC(C)C)N(C)C(=O)C[C@@H](C(=O)N2CCCCC2)N(C)C(=O)[C@H](CC(C)C)NC(=O)C(C)(C)N(C)C(=O)[C@H](Cc2ccc(C(F)(F)F)cc2)NC(=O)[C@H](Cc2cccc(I)c2)NC(=O)CN(C)C(=O)[C@H](CC2CCCCC2)N(C)C(=O)CN(C)C(=O)CN(C)C1=O [Compound 336] ([NMeL]I[Sar][Sar][NMeCha][Sar][Phe(3-I)][Phe(4-CF3)][NMeAib]L[NMeD]-Piperidide; lactam N-11)	93
CC[C@H](C)[C@@H]1NC(=O)[C@H](CC(C)C)N(C)C(=O)C[C@@H](C(=O)N2CCCCC2)N(C)C(=O)[C@H](C(C)C)N(C)C(=O)C2(CCCC2)NC(=O)[C@@H]2CCCN2C(=O)[C@H](CCc2ccc(C(F)(F)F)c(Cl)c2)NC(=O)CN(C)C(=O)[C@H](COC2CCC2)N(C)C(=O)[C@@H]2CCN2C(=O)[C@H](C)N(C)C1=O [Compound 880] ([NMeL]I[NMeA][Aze][NMeS](Cyclobutyl)[Sar][hPhe(3-Cl-4-CF3)]P[Ac5c][NMeV][NMeD]-Piperidide; lactam N-11)	2.9

* * *

biological target: Kras and SOS1 (biotin-tagged human Kras loaded with GDP, His-tagged human SOS1) (Homo sapiens, UniProt P01116, G12D); construct: made in house; host or cells: E. coli (stated for Kras only); assay: Protein-protein interaction inhibition between Kras and SOS1 (KrasGl2D-SOS PPI) using AlphaScreen; type: binding; conditions: AlphaScreen; biotin-tagged human Kras loaded with GDP, His-tagged human SOS1; read-out: KRAS G12D-SOS PPI IC50
pIC50: −log10 of the molar value. Starred links: 1 amine or outer side, 2 acyl side, 3 side chain; linkers in the order of their positions; H or OH if unused. Positions of bridges follow the written chain, without caps; N, C: chain ends. Non-standard residues stand in square brackets, D forms with d. Residues, ends and D or L forms follow the SMILES beside them. *: point of attachment. hPhe(3-Cl-4-CF3) = N[C@@H](CCc1ccc(C(F)(F)F)c(Cl)c1)C(=O)O; NMePhe(4-CN) = CN[C@@H](Cc1ccc(C#N)cc1)C(=O)O; NMePhe(4-Me) = CN[C@@H](Cc1ccc(C)cc1)C(=O)O; NMedβ3hAla = C[C@H](CC(=O)[*:2])N(C)[*:1]; NMePhe(2-F) = CN[C@@H](Cc1ccccc1F)C(=O)O; NMeGly(cPent) = CN[C@H](C(=O)O)C1CCCC1; NMehPhe = CN[C@@H](CCc1ccccc1)C(=O)O; NMeCha = CN[C@@H](CC1CCCCC1)C(=O)O; NMeChg = CN[C@H](C(=O)O)C1CCCCC1; NMeI = CC[C@H](C)[C@H](NC)C(=O)O; NMeD = CN[C@@H](CC(=O)O)C(=O)O; NMeL = CN[C@@H](CC(C)C)C(=O)O; NMeV = CN[C@H](C(=O)O)C(C)C; d(β3hA) = C[C@@H](N)CC(=O)O; NMeAbu = CC[C@H](NC)C(=O)O; NMeS = CN[C@@H](CO)C(=O)O; Morpholide = C1CN(*)CCO1; NMeA = CN[C@@H](C)C(=O)O; Ac5c = NC1(C(=O)O)CCCC1; Aze = O=C(O)[C@@H]1CCN1; βAla = NCCC(=O)O; Sar = CNCC(=O)O; Propyl = CCC*
Reported Property: pIC50

Molecule	Endpoint Result
CC[C@H](C)[C@@H]1NC(=O)[C@H](CC(C)C)N(C)C(=O)CCNC(=O)[C@H](C(C)C)N(C)C(=O)C2(CCCC2)NC(=O)[C@@H]2CCCN2C(=O)[C@H](CCc2ccc(C(F)(F)F)c(Cl)c2)NC(=O)CN(C)C(=O)[C@H](CC2CCCCC2)N(C)C(=O)CN(C)C(=O)CN(C)C1=O [Compound 979] (cyclo([Ac5c][NMeV][βAla][NMeL]I[Sar][Sar][NMeCha][Sar][hPhe(3-Cl-4-CF3)]P))	7.43
CC[C@H](C)[C@@H]1NC(=O)[C@H](CC(C)C)N(C)C(=O)C[C@@H](C)N(C)C(=O)[C@H](C(C)C)N(C)C(=O)C2(CCCC2)NC(=O)[C@@H]2CCCN2C(=O)[C@H](CCc2ccc(C(F)(F)F)c(Cl)c2)NC(=O)CN(C)C(=O)[C@H](CCc2ccccc2)N(C)C(=O)CN(C)C(=O)CN(C)C1=O [Compound 1634] (cyclo([Ac5c][NMeV][NMedβ3hAla][NMeL]I[Sar][Sar][NMehPhe][Sar][hPhe(3-Cl-4-CF3)]P))	7.89
CCCOC[C@H]1C(=O)N(C)CC(=O)N[C@@H](CCc2ccc(C(F)(F)F)c(Cl)c2)C(=O)N2CCC[C@H]2C(=O)NC2(CCCC2)C(=O)N(C)[C@@H](C2CCCCC2)C(=O)N(C)[C@H](C(=O)N2CCOCC2)CC(=O)N(C)[C@@H](CC)C(=O)N[C@@H]([C@@H](C)CC)C(=O)N(C)CC(=O)N(C)CC(=O)N1C [Compound 1896] ([NMeAbu]I[Sar][Sar][NMeS](Propyl)[Sar][hPhe(3-Cl-4-CF3)]P[Ac5c][NMeChg][NMeD]-Morpholide; lactam N-11)	9.31
CC[C@H](C)[C@@H]1NC(=O)[C@H](CC(C)C)N(C)C(=O)C[C@@H](C(=O)N(C)C)N(C)C(=O)[C@H]([C@@H](C)CC)N(C)C(=O)C2(CCCC2)NC(=O)[C@H](Cc2ccc(C#N)cc2)N(C)C(=O)[C@H](CCc2ccc(C(F)(F)F)c(Cl)c2)NC(=O)CN(C)C(=O)[C@H](Cc2ccc(C)cc2)N(C)C(=O)[C@@H]2CCN2C(=O)[C@H](C)N(C)C1=O [Compound 1927] ([NMeL]I[NMeA][Aze][NMePhe(4-Me)][Sar][hPhe(3-Cl-4-CF3)][NMePhe(4-CN)][Ac5c][NMeI][NMeD]-NMe2; lactam N-11)	8.48
CC[C@H](C)[C@@H]1NC(=O)[C@H](C)N(C)C(=O)C[C@@H](C)NC(=O)[C@H](C2CCCC2)N(C)C(=O)C2(CCCC2)NC(=O)[C@@H]2CCCN2C(=O)[C@H](CCc2ccc(C(F)(F)F)c(Cl)c2)NC(=O)CN(C)C(=O)[C@H](Cc2ccccc2F)N(C)C(=O)[C@@H]2CCCN2C(=O)CN(C)C1=O [Compound 1077] (cyclo([Ac5c][NMeGly(cPent)][d(β3hA)][NMeA]I[Sar]P[NMePhe(2-F)][Sar][hPhe(3-Cl-4-CF3)]P))	7.47
